Data provenance is patent US8772277B2.

SUBJECT OF TEST: GST-ERR-α ligand-binding domain (Homo sapiens)
Sequence (P11474 193-421 limits assumed): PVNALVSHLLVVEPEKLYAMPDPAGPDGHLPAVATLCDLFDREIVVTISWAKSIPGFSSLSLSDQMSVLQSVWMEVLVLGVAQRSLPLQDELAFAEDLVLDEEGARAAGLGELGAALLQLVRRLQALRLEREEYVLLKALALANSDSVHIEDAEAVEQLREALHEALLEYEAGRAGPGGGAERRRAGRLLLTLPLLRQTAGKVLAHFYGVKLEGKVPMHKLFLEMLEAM
TEST SUMMARY: HTRF assay system using ERR-α ligand-binding domain (inverse agonist activity, biotinylated SRC-1 (676-700) peptide)
Type: biochemical
EXPERIMENTAL SETUP: compound final concentration 30 μM; 665/620 ratio; no compound = 0%, 10 μM XCT-790 = 100%; read-out: inhibition rate (%) at 30 μM
Counter-ions that a name gives are not always drawn.
TEST READOUT: inhibition at 30 µM (%)

Check out these entries, answers already filled in.
COMPOUND: CN(C)C(=O)[C@H](CO)NC1=NC(=O)S/C1=C\C1CCN(Cc2ccc(C(F)(F)F)cc2C(F)(F)F)CC1
SUBJECT OF TEST: GST-ERR-α ligand-binding domain (Homo sapiens)
inhibition at 30 µM (%): 102
--
COMPOUND: CN(CCO)CCNC1=NC(=O)S/C1=C\C1CCN(Cc2ccc(C(F)(F)F)cc2C(F)(F)F)CC1
SUBJECT OF TEST: GST-ERR-α ligand-binding domain (Homo sapiens)
inhibition at 30 µM (%): 110
--
COMPOUND: O=C1N=C(NCC2CC2)/C(=C/C2CCN(Cc3ccc(C(F)(F)F)cc3C(F)(F)F)CC2)S1 [Example 61, fumarate]
SUBJECT OF TEST: GST-ERR-α ligand-binding domain (Homo sapiens)
inhibition at 30 µM (%): 95
--
COMPOUND: CCN(CC)CCOCCNC1=NC(=O)S/C1=C\C1CCN(Cc2ccc(C(F)(F)F)cc2C(F)(F)F)CC1 [Example 47, ditosylate]
SUBJECT OF TEST: GST-ERR-α ligand-binding domain (Homo sapiens)
inhibition at 30 µM (%): 108
--
COMPOUND: CN(C)C(=O)CCNC1=NC(=O)S/C1=C\C1CCN(Cc2ccc(C(F)(F)F)cc2C(F)(F)F)CC1
SUBJECT OF TEST: GST-ERR-α ligand-binding domain (Homo sapiens)
inhibition at 30 µM (%): 100

I: C#CCNC1=NC(=O)S/C1=C\C1CCN(Cc2ccc(Cl)cc2C(F)(F)F)CC1 [Example 24, fumarate]
II: C#CCNC1=NC(=O)S/C1=C\C1CCN(Cc2ccc(C#N)cc2C(F)(F)F)CC1
III: C#CCNC1=NC(=O)S/C1=C\C1CCN(Cc2ccc(C(F)(F)F)cc2Cl)CC1 [Example 59, fumarate]
Arrange the 3 compounds by rising inhibition at 30 µM, starting with the smallest. Put the labels in the order asked and list them.
III, II, I
